target: γ-secretase (Homo sapiens, UniProt P49768); construct: endogenous in cells; host or cells: SKNBE2 cells carrying APP 695 wild type; experiment: Screening for γ-secretase-modulating activity in SKNBE2 cells carrying the APP 695 wild type; format: cell-based; conditions: 0.3 μM; SKNBE2 cells carrying APP 695 wild type

compound: CC(C)CCN(Cc1cc(CC(=O)O)cc(-c2ccc(C(F)(F)F)cc2)c1)Cc1ccc(Cl)c(F)c1
inhibition at 0.3 µM / %: 11
--
compound: CC(C)CCN(Cc1ccc(C#N)cc1)c1cc(-c2ccc(C(F)(F)F)cc2)cc([C@@H](CC(C)C)C(=O)O)c1
inhibition at 0.3 µM / %: 31
--
compound: CC(C)CCC(c1cc(F)cc(F)c1)N(C)c1cc(-c2ccc(C(F)(F)F)cc2)cc(C(CC(C)C)C(=O)O)c1 (centres unmarked)
inhibition at 0.3 µM / %: 65
--
compound: CC(C)CC(C(=O)O)c1cc(-c2ccc(C(F)(F)F)cc2)cc(N2CCCc3ccccc32)c1 (centres unmarked)
inhibition at 0.3 µM / %: 0
--
compound: CCN(c1cc(-c2ccc(C(F)(F)F)cc2)cc(C(CC(C)C)C(=O)O)c1)c1cccc(C(F)(F)F)c1 (centres unmarked)
inhibition at 0.3 µM / %: 16
--
compound: CC(C)C[C@@H](C(=O)O)c1cc(NCc2cc(C(F)(F)F)cc(C(F)(F)F)c2)cc(-c2ccc(C(F)(F)F)cc2)c1
inhibition at 0.3 µM / %: 6
--
compound: CCN(c1ccc(Cl)cc1)c1cc(-c2ccc(C(F)(F)F)cc2)cc(C(CC(C)C)C(=O)O)c1 (centres unmarked)
inhibition at 0.3 µM / %: 14
--
compound: CC(C)CC(C(=O)O)c1cc(-c2ccc(C(F)(F)F)cc2)cc(N2CCc3ccccc3C2)c1 (centres unmarked)
inhibition at 0.3 µM / %: 0
--
compound: CC(C)C[C@@H](C(=O)O)c1cc(NCc2ccc(OC(F)(F)F)cc2)cc(-c2ccc(C(F)(F)F)cc2)c1
inhibition at 0.3 µM / %: 0
--
compound: CC(C)C[C@@H](C(=O)O)c1cc(NCc2ccc(C(F)(F)F)cc2)cc(-c2ccc(C(F)(F)F)cc2)c1
inhibition at 0.3 µM / %: 7
--
compound: CC(C)CC(C(=O)O)c1cc(-c2ccc(C(F)(F)F)cc2)cc(N2CCc3ccccc32)c1 (centres unmarked)
inhibition at 0.3 µM / %: 0
--
compound: CC(C)CC(C(=O)O)c1cc(NCc2ccc(C(C)(C)C)cc2)cc(-c2ccc(C(F)(F)F)cc2)c1 (centres unmarked)
inhibition at 0.3 µM / %: 18
--
compound: CC(C)CCC(Nc1cc(CC(=O)O)cc(-c2ccc(C(F)(F)F)cc2)c1)c1ccc(C(F)(F)F)cc1 (centres unmarked)
inhibition at 0.3 µM / %: 25
--
compound: CC(C)C[C@@H](C(=O)O)c1cc(NCc2cc(F)cc(F)c2)cc(-c2ccc(C(F)(F)F)cc2)c1
inhibition at 0.3 µM / %: 0
